target: RON tyrosine kinase (Homo sapiens, UniProt Q04912)
Sequence (Q04912 25-1400): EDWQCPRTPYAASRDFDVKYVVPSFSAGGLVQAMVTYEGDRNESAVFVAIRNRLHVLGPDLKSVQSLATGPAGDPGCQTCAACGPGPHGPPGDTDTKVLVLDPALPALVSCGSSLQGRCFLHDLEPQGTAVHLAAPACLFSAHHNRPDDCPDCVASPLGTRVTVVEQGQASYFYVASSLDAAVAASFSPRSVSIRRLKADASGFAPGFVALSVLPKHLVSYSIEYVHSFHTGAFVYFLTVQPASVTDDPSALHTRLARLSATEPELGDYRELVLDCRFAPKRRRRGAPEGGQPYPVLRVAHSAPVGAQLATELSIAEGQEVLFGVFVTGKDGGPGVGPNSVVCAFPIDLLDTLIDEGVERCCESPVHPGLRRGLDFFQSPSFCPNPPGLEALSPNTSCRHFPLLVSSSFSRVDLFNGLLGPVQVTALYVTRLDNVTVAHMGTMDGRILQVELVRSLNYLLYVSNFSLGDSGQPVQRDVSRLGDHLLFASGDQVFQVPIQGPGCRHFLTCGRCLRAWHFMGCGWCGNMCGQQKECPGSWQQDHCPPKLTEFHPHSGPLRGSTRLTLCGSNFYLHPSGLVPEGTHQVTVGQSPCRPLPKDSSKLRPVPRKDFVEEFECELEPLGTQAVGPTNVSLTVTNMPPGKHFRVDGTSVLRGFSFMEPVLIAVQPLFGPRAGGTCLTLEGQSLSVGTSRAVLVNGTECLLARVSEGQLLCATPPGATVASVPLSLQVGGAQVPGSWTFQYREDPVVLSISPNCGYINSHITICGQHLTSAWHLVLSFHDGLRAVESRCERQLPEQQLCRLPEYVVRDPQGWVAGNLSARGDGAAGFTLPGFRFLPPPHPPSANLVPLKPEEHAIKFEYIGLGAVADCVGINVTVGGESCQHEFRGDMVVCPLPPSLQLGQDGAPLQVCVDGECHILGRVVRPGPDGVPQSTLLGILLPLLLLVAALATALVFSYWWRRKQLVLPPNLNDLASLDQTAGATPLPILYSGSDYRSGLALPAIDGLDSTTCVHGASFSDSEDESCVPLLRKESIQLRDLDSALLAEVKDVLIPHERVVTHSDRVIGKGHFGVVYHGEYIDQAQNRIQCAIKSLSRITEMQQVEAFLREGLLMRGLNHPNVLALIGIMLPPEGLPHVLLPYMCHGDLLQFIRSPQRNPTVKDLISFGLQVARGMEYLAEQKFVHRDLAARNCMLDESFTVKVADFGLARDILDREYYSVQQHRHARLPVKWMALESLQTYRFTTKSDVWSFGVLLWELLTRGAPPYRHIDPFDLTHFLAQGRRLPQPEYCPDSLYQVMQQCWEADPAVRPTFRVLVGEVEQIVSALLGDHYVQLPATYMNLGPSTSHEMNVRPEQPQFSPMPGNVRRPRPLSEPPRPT
pIC50: −log10 of the molar value.
Measured metric: pIC50

| Structure as smiles | pIC50 |
| --- | --- |
| O=C(Nc1ccc(Oc2ncnc3[nH]cnc23)c(F)c1)c1c2c(cn(-c3ccc(F)cc3)c1=O)CCO2 | 7.34 |
| CNC(=O)c1cc2c(Oc3ccc(NC(=O)c4c5c(cn(-c6ccc(F)cc6)c4=O)CCO5)cc3F)ccnc2cc1OCCCN1CCOCC1 | 8.84 |
| CN1CCN(CCCOc2ccc3c(Oc4ccc(NC(=O)c5c6c(cn(-c7ccc(F)cc7)c5=O)CCO6)cc4F)ccnc3c2)CC1 | 9.00 |
| Cc1cc2c(Oc3ccc(NC(=O)c4c5c(cn(-c6ccc(F)cc6)c4=O)CCO5)cc3F)ccnc2[nH]1 | 8.44 |
| O=C(Nc1ccc(Oc2ccnc3[nH]cnc23)c(F)c1)c1c2c(cn(-c3ccc(F)cc3)c1=O)CCO2 | 8.06 |

A: O=C(Nc1ccc(Oc2ccnc3cc(OCCN4CCOCC4)ccc23)c(F)c1)c1c2c(cn(-c3ccc(F)cc3)c1=O)CCO2
B: COc1cc2c(Oc3ccc(NC(=O)c4c5c(cn(-c6ccc(F)cc6)c4=O)CCO5)cc3F)ccnc2cc1NC(=O)CCN1CCOCC1
C: O=C(Nc1ccc(Oc2ncnc3[nH]ccc23)c(F)c1)c1c2c(cn(-c3ccc(F)cc3)c1=O)CCO2
D: O=C(Nc1ccc(Oc2ccnc3cc(OCCCN4CCCCC4)ccc23)c(F)c1)c1c2c(cn(-c3ccc(F)cc3)c1=O)CCO2
## Task Order the records, beginning with the lowest pIC50 and ending with the highest. List the labels according to the requested ordering.
## Result C, B, A, D

a: CNC(=O)c1cc2c(Oc3ccc(NC(=O)c4c5c(cn(-c6ccc(F)cc6)c4=O)CCO5)cc3F)ccnc2cc1OC
b: COc1cc2c(Oc3ccc(NC(=O)c4c5c(cn(-c6ccc(F)cc6)c4=O)CCO5)cc3F)ccnc2cc1NC(=O)CN1CCOCC1
## Task Which value of pIC50 is numerically greater: that of a or that of b ? Identify your pick by its label.
## Result a

P: COc1cc2c(Oc3ccc(NC(=O)c4c5c(cn(-c6ccc(F)cc6)c4=O)CCO5)cc3F)ccnc2cc1NC(C)=O
Q: COc1cc2c(Oc3ccc(NC(=O)c4c5c(cn(-c6ccc(F)cc6)c4=O)CCO5)cc3F)ccnc2cc1NCCN1CCOCC1
## Task Which value of pIC50 is numerically greater: that of P or that of Q ? Identify your pick by its label.
## Result P

====

test system: cancer cell line KM12C, in which RON is activated; assay: Cell-killing efficacy in RON-activated cancer cell line (trypan blue); type: cell-based; settings: Homo sapiens, 5 μM, 48 hours, trypan blue, n=2, read-out: Cell death (%) Cancer cell line KM12C
Below, each entry is listed alongside its reported cytotoxicity at 5 µM.
Use % as the unit, but write only the number.

Worked examples follow.
| Compound | Study system | Units | Test result |
| --- | --- | --- | --- |
| O=C(Nc1ccc(Oc2ccnc3cc(-c4ccc(CN5CCC(F)(F)CC5)cn4)sc23)c(F)c1)c1c2c(cn(-c3ccc(F)cc3)c1=O)CCO2 [Example 35] | cancer cell line KM12C, in which RON is activated | % | 28.1 |
| COC1CCN(Cc2ccc(-c3cc4nccc(Oc5ccc(NC(=O)c6c7c(cn(-c8ccc(F)cc8)c6=O)CCO7)cc5F)c4s3)nc2)CC1 [Example 31] | cancer cell line KM12C, in which RON is activated | % | 52 |
| COc1cc2c(Oc3ccc(NC(=O)c4c5c(cn(-c6ccc(F)cc6)c4=O)CCO5)cc3F)ccnc2cc1N [Example 181] | cancer cell line KM12C, in which RON is activated | % | 36.8 |
| O=C(Nc1ccc(Oc2ccnc3cc(OCCCN4CCOCC4)c(Cl)cc23)c(F)c1)c1c2c(cn(-c3ccc(F)cc3)c1=O)CCO2 [Example 172] | cancer cell line KM12C, in which RON is activated | % | 11.6 |
| COc1cc2c(Oc3ccc(NC(=O)c4c5c(cn(-c6ccc(F)cc6)c4=O)CCO5)cc3F)ccnc2cc1OCCCN1CC(F)(F)C1 [Example 87] | cancer cell line KM12C, in which RON is activated | % | 60.1 |

Could you now consider this next compound?
## Task cytotoxicity at 5 µM of CNC(=O)c1cc2nccc(Oc3ccc(NC(=O)c4c5c(cn(-c6ccc(F)cc6)c4=O)CCO5)cc3F)c2cc1OCCN1CCOCC1 [Example 166] on cancer cell line KM12C, in which RON is activated?
## Result 14.9
